Tested on: Fibroblast
PROTOCOL: Incucyte cell viability with human fibroblast; also: filed as whole numbers so only -1 and 0 and 1 occur
Format: toxicity, cell-based
TEST SETTINGS: 24 h, 10 µM, compound concentration 10 uM, replicate number 2, timepoint 24 hours
Recorded Growth Rate values for a group of compounds are listed next.

# COMPOUND, Growth Rate
data = [
    ("CCCCC[C@H](O)/C=C/[C@@H]1[C@@H](C/C=C\\CCCC(=O)O)[C@@H](O)C[C@H]1O", 1),
    ("COc1cccc(OC)c1-c1cc(C(=O)NC2(C(=O)O)C3CC4CC(C3)CC2C4)nn1-c1ccnc2cc(Cl)ccc12 (centres undefined)", 0),
    ("Nc1nc(NCc2ccccc2)nc(-c2cccc(CO)c2)n1", 1),
    ("Cc1cnc(-c2cc(Cl)ccc2F)cc1-n1c(=O)n(CC(N)=O)c2cnccc21", 0),
]
